MEC (minimum effective concentration) overview
Test system: recombinant guanylate cyclase reporter cell line
assay_protocol: Effect on a recombinant guanylate cyclase reporter cell line
Type: cell-based
condition: in some cases mean values for individual determinations
Expressed in µM, but write only the number.

# input // MEC (minimum effective concentration) lookup, key: Cc1nc2c(OCc3c(F)cccc3F)cc(Cl)cn2c1C(=O)NCC(C)(N)CCCF (single isomer, unassigned; enantiomer b) [Example 4]
# output 0.1

# input // MEC (minimum effective concentration) lookup, key: Cc1nc2c(OCc3c(F)cccc3F)cc(Cl)cn2c1C(=O)NCC(C)(N)CCF (single isomer, unassigned; enantiomer a) [Example 8]
# output 0.1

# input // MEC (minimum effective concentration) lookup, key: Cc1nc2c(OCc3c(F)cccc3F)cc(Cl)cn2c1C(=O)NCC(C)(N)CCC(F)(F)F (single isomer, unassigned; enantiomer b)
# output 0.3

# input // MEC (minimum effective concentration) lookup, key: Cc1nc2c(OCc3c(F)cccc3F)cc(Cl)cn2c1C(=O)NCC(C)(N)CC(F)F (single isomer, unassigned; enantiomer a) [Example 5]
# output 0.3

# input // MEC (minimum effective concentration) lookup, key: Cc1nc2c(OCc3c(F)cccc3F)cc(Cl)cn2c1C(=O)NCC(C)(N)CCF (single isomer, unassigned; enantiomer b) [Example 9]
# output 0.1

# input // MEC (minimum effective concentration) lookup, key: Cc1nc2c(OCc3c(F)cccc3F)cc(Cl)cn2c1C(=O)NCC(C)(N)CF (single isomer, unassigned; enantiomer b)
# output 0.3

###

MEC (minimum effective concentration) overview
Test system: recombinant guanylate cyclase reporter cell line
assay_protocol: Effect on a recombinant guanylate cyclase reporter cell line
Assay type: cell-based
condition: in some cases mean values for individual determinations
Expressed in µM, but write only the number.

Reference set, count: 2
Cc1nc2c(OCc3c(F)cccc3F)cc(Cl)cn2c1C(=O)NCC(C)(N)CC(F)F (single isomer, unassigned; enantiomer b) [Example 6] : 0.3
Cc1nc2c(OCc3c(F)cccc3F)cc(Cl)cn2c1C(=O)NCC(C)(N)CCCF (single isomer, unassigned; enantiomer a) [Example 3] : 0.1

// next item, MEC (minimum effective concentration) requested
# input // MEC (minimum effective concentration) lookup, key: Cc1nc2c(OCc3c(F)cccc3F)cc(Cl)cn2c1C(=O)NCC(C)(N)CCF (racemic) [Example 7]
# output 0.1
